molecular target: gH/gL of HCMV strain TB40/E (on virus) (human cytomegalovirus (strain TB40/E)); test: cell-based or functional assay
readout-label: IC50(ARPE-19) TB40/E, virus neutralization (µg/mL)
Report as a plain number; the unit µg/mL is understood.

# annotated cases, reported IC50(ARPE-19) TB40/E, virus neutralization shown
{"binder": "15G11 (antibody, V domains shown, also called 15G11 (ms); anti-gH mAb 15G11) VH: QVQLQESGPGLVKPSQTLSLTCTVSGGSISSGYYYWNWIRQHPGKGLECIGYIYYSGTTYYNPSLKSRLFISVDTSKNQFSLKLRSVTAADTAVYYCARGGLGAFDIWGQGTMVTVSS VL: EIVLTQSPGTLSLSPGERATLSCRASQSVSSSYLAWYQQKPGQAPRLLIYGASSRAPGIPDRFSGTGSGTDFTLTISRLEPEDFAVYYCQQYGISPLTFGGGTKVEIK", "result-units": "µg/mL", "value-observed": 0.09}
{"binder": "14E1 (antibody, V domains shown, also called 14E1 (ms)) VH: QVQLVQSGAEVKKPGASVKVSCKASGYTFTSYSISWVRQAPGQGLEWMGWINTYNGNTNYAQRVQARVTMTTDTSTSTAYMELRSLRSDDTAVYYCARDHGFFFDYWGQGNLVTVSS VL: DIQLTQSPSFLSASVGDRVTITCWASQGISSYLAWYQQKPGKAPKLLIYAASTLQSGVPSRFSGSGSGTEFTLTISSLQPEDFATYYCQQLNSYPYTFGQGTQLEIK", "result-units": "µg/mL", "value-observed": 3.06}
{"binder": "9A12 (antibody, V domains shown, also called 9A12 (ms); anti-gH mAb 9A12) VH: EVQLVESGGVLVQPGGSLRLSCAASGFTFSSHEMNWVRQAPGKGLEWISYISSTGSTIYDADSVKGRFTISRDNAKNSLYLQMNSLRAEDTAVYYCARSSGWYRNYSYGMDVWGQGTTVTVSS VL: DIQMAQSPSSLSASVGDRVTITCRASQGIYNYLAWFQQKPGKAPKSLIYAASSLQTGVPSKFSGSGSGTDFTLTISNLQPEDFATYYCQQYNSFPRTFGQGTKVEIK", "result-units": "µg/mL", "value-observed": 1.1}

Supply IC50(ARPE-19) TB40/E, virus neutralization value. Item: 13G1 (antibody, V domains shown, also called 13G1 (ms); anti-gH mAb 13G1) VH: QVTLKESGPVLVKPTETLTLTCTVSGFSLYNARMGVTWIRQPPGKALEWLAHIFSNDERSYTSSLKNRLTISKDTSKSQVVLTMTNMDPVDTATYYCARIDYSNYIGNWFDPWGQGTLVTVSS VL: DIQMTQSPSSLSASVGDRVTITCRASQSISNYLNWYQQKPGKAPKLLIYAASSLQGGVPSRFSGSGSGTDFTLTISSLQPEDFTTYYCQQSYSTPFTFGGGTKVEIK
1.01
